Reference source: patent US6177449A

- TARGET OR TEST SYSTEM: human IsK protein (Homo sapiens, UniProt P15382)
- Construct: only IsK injected, pore from oocyte's endogenous KCNQ1; two-microelectrode voltage clamp
- PROCEDURE TEXT: Inhibition of IsK current in Xenopus oocytes expressing human IsK protein (two-microelectrode voltage-clamp)
- PROTOCOL CONDITIONS: human IsK expressed in Xenopus oocytes; activated to -10 mV, 15 s voltage jumps, room temperature; Hill equation
pIC50: −log10 of the molar value.
EXPERIMENTAL ENDPOINT: pIC50

CCN(C1CC(C)(C)Oc2ccc(OCCCCC(=O)NCCOC)cc21)S(C)(=O)=O (stereo not drawn) = 5.20

I = CCOCCCOc1ccc2c(c1)C(N(CC)S(C)(=O)=O)CC(C)(C)O2 (stereo not drawn)
II = CCN(C1CC(C)(C)Oc2ccc(OCCO)cc21)S(C)(=O)=O (stereo not drawn)
// query Which entry has a larger number for pIC50, I or II ? Mark your answer with the label of the selected entry.
// result I
(I: 6.37, II: 5.13)

====

- TARGET OR TEST SYSTEM: human IsK protein (Homo sapiens, UniProt P15382)
- Construct: only IsK injected, pore from oocyte's endogenous KCNQ1; two-microelectrode voltage clamp
- PROCEDURE TEXT: Inhibition of IsK current in Xenopus oocytes expressing human IsK protein (two-microelectrode voltage-clamp)
- PROTOCOL CONDITIONS: human IsK expressed in Xenopus oocytes; activated to -10 mV, 15 s voltage jumps, room temperature; Hill equation
EXPERIMENTAL ENDPOINT: IC50 (nM)

CCS(=O)(=O)N(C)C1CC(C)(C)Oc2ccc(-c3cccs3)cc21 (stereo not drawn) [Example 26] = 380
CCN(C1CC(C)(C)Oc2ccc(OCCCCCO)cc21)S(C)(=O)=O (stereo not drawn) [Example 2] = 1710
CCCN(C1CC(C)(C)Oc2ccc(OCC(=O)NCCCOCC)cc21)S(=O)(=O)CC (stereo not drawn) [Example 23] = 2490
CCOCCOc1ccc2c(c1)C(N(CC)S(C)(=O)=O)CC(C)(C)O2 (stereo not drawn) [Example 9] = 690

a = CCOCCCOc1ccc2c(c1)C(N(C)S(C)(=O)=O)CC(C)(C)O2 (stereo not drawn) [Example 15]
b = CCOCCCOc1ccc2c(c1)C(N(CCOC)S(C)(=O)=O)CC(C)(C)O2 (stereo not drawn) [Example 21]
// query Which entry has a larger number for IC50, a or b ? Mark your answer with the label of the selected entry.
// result b

====

- TARGET OR TEST SYSTEM: human IsK protein (Homo sapiens)
- Construct: only IsK injected, pore from oocyte's endogenous KCNQ1; two-microelectrode voltage clamp
- PROCEDURE TEXT: Inhibition of IsK current in Xenopus oocytes expressing human IsK protein (two-microelectrode voltage-clamp)
- PROTOCOL CONDITIONS: human IsK expressed in Xenopus oocytes; activated to -10 mV, 15 s voltage jumps, room temperature; Hill equation
pIC50: −log10 of the molar value.
Below, each of the molecules is paired with its reported pIC50 value.

// worked examples, pIC50 included
CCCN(C1CC(C)(C)Oc2ccc(OCC(=O)NCCOC)cc21)S(=O)(=O)CC (stereo not drawn) = ~5.52
CCN(C1CC(C)(C)Oc2ccc(OCc3cc(OC)ccn3)cc21)S(C)(=O)=O (stereo not drawn) = ~5.10

# ---- query molecule ----
// query Please tell me: pIC50 of CCOCCOc1ccc2c(c1)C(N(CCOC)S(C)(=O)=O)CC(C)(C)O2 (stereo not drawn) , system human IsK protein (Homo sapiens)?
// result ~6.00
